- Tested target: RORC2 ligand binding domain (6-His-RORC2 LBD) (Homo sapiens)
- Sequence (P51449 269-508 limits assumed): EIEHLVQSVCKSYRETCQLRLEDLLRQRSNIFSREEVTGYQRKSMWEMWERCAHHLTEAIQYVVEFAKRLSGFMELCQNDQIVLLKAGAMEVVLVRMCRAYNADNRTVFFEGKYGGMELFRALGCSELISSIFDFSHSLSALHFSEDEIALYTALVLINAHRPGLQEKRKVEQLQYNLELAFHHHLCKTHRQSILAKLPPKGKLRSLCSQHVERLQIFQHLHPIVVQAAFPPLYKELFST
Measure name: IC50 (nM)

# example entries with known answers
Entry N#Cc1cccc(C(=O)Nc2ccc3cnn(C4CCN(C(=O)C5CCCC5)CC4)c3c2)c1 [Example 84] , system RORC2 ligand binding domain (6-His-RORC2 LBD) (Homo sapiens): what IC50 was measured?
214

Entry O=C(Nc1ccc2[nH]cc(C3CCN(C(=O)C4CCCC4)CC3)c2c1)c1ccc2scnc2c1 [Example 43] , system RORC2 ligand binding domain (6-His-RORC2 LBD) (Homo sapiens): what IC50 was measured?
1030

Entry Cn1cc(C2CCN(C(=O)C3CCCC3)CC2)c2cc(NS(=O)(=O)C3CC3)ccc21 [Example 72] , system RORC2 ligand binding domain (6-His-RORC2 LBD) (Homo sapiens): what IC50 was measured?
128

[a] Cn1cc(C2CCN(C(=O)[C@H]3CC[C@@H](O)CC3)CC2)c2cc(NC(=O)c3cccc(C#N)c3)ccc21 [Example 5]
[b] NC(=O)c1cccc(C(=O)Nc2ccc3[nH]cc(C4CCN(C(=O)C5CCCC5)CC4)c3c2)c1 [Example 50]
[c] Cn1cc(C2CCN(C(=O)C3CCCC3)CC2)c2cc(NS(=O)(=O)c3cnc(N)nc3)ccc21 [Example 65]
[d] Cn1cc(C2CCN(C(=O)c3ccncn3)CC2)c2cc(NC(=O)c3cc(C#N)ccn3)ccc21 [Example 20]
Rank by IC50 (largest to smallest). Please list the labels in the order you were asked to rank them.
b, d, a, c
(b: 1430 nM, d: 246 nM, a: 106 nM, c: 37.3 nM)

====

- Tested target: RORC2 ligand binding domain (6-His-RORC2 LBD) (Homo sapiens, UniProt P51449)
- Sequence (P51449 269-508 limits assumed): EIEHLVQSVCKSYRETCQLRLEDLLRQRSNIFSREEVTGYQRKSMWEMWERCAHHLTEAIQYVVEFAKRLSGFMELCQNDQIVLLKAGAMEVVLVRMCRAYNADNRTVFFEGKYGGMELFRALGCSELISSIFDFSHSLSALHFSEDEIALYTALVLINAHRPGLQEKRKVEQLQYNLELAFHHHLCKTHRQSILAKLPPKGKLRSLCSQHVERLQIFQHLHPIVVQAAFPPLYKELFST
Measure name: IC50 (nM)

# example entries with known answers
So what's the measured IC50 for this one? Cn1cnc2cc(C(=O)Nc3ccc4[nH]cc(C5CCN(C(=O)C6CCCC6)CC5)c4c3)ccc21 [Example 52]
1110

So what's the measured IC50 for this one? Cn1cc(C2CCN(C(=O)[C@H]3CC[C@@H](O)CC3)CC2)c2cc(NC(=O)c3cc(C#N)ccn3)ccc21 [Example 29]
56.2

[a] CC(C)c1cnc(N2CCC(c3cn(C)c4ccc(NC(=O)c5cccc(C#N)c5)cc34)CC2)nc1 [Example 80]
[b] Cn1cc(C2CCN(C(=O)C3CCCC3)CC2)c2cc(NS(=O)(=O)Cc3ccccc3)ccc21 [Example 77]
I would appreciate it if you could say which entry, a or b , has the lower IC50 value. // return label of chosen record
b

[A] Cn1cc(C2CCN(C(=O)c3ncccn3)CC2)c2cc(NC(=O)c3cc(C#N)ccn3)ccc21 [Example 24]
[B] O=C(Nc1ccc2[nH]cc(C3CCN(C(=O)C4CCCC4)CC3)c2c1)c1ccccc1Cl [Example 44]
I would appreciate it if you could say which entry, A or B , has the lower IC50 value. // return label of chosen record
A
